Target: human α2C‐adrenoceptor (Homo sapiens, UniProt P18825)
Sequence (P18825 1-462): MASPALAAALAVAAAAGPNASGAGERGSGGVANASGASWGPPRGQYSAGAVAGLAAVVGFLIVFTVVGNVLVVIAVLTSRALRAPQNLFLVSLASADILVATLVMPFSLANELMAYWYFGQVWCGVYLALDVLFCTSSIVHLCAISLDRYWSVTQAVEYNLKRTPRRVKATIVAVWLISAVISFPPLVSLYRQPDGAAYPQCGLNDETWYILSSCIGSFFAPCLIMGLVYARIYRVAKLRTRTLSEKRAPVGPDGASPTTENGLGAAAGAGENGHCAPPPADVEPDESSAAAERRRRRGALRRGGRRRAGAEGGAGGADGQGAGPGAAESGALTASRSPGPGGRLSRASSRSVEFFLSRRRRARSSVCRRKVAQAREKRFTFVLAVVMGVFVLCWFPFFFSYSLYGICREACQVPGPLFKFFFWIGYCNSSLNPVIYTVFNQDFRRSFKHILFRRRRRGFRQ
Test: 3H‐rauwolscine whole cell binding in CHO‐α2C cells
Set-up: expressed in transfected cells; host or cells: CHO-K1 with CRE-SPAP reporter
measuredAttribute: IC50

Consider the compound shown here: COc1ccc(CC(C)NCC(O)c2ccc(O)c(NC=O)c2)cc1 (stereo not shown) What is its recorded IC50?
> 100 µM

###

# key: entry, value: Selectivity ratio α2A vs α2C (higher affinity for α2A)
target: UniProt P08913; assay: 3H‐rauwolscine whole cell binding in CHO‐α2A cells; design: expressed in transfected cells; host or cells: CHO-K1 with CRE-SPAP reporter; settings: fold, from KD values; 1 = no selectivity

For UniProt P08913, provide Selectivity ratio α2A vs α2C (higher affinity for α2A) of c1ccc2c(CC3=NCCN3)cccc2c1 please.
4.1

For UniProt P08913, provide Selectivity ratio α2A vs α2C (higher affinity for α2A) of C1COC(NC(C2CC2)C2CC2)=N1 please.
1.0

For UniProt P08913, provide Selectivity ratio α2A vs α2C (higher affinity for α2A) of c1ccc2c(c1)CCCC2C1=NCCN1 (centres unmarked) [Tetrahydrozoline] please.
2.6

For UniProt P08913, provide Selectivity ratio α2A vs α2C (higher affinity for α2A) of COc1ccc(OC)c(C(O)C(C)N)c1 (centres unmarked) please.
1.2

For UniProt P08913, provide Selectivity ratio α2A vs α2C (higher affinity for α2A) of c1ccc(C2CC2)c(OCC2=NCCN2)c1 please.
2.0

###

molecular target: human α2A‐adrenoceptor (Homo sapiens); experiment: ERK1/2‐phosphorylation in CHO‐α2A cells; type: cell-based; set-up: expressed in transfected cells; host or cells: CHO-K1 with CRE-SPAP reporter
Sequence (P08913 whole entry): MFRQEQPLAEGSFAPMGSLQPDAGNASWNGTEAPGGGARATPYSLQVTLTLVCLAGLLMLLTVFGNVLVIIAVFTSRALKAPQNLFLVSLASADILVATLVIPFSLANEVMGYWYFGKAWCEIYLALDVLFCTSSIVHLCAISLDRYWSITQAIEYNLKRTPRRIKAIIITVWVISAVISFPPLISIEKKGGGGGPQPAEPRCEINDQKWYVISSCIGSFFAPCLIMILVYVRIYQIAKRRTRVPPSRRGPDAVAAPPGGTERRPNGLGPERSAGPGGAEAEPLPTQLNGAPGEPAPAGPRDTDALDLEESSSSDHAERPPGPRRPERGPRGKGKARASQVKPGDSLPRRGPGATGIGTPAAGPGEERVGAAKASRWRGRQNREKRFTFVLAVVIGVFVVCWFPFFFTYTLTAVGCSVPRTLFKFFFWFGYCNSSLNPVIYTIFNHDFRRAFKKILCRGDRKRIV
measuredAttribute: % 10 μM PDBu, ERK1/2‐phosphorylation (%)
Note: unit % is implicit; provide only the numeric part.

Some molecules with recorded % 10 μM PDBu, ERK1/2‐phosphorylation:
- Cc1cccc(C)c1N=C1NCCCS1: 128.3
- Cc1cccc([C@H](C)c2cnc[nH]2)c1C: 138.5
- Cc1cccc(C(C)c2cnc[nH]2)c1C (stereo not drawn): 114.1
- Nc1cc(Cl)c(N=C2NCCN2)c(Cl)c1: 141.9
- CC(N)C(O)c1ccc(O)c(O)c1 (stereo not drawn) [α‐methylnorepinephrine]: 142.6

For human α2A‐adrenoceptor (Homo sapiens), provide % 10 μM PDBu, ERK1/2‐phosphorylation of CN[C@@H](C)[C@H](O)c1ccccc1 please.
123.1

For human α2A‐adrenoceptor (Homo sapiens), provide % 10 μM PDBu, ERK1/2‐phosphorylation of C=CCc1ccccc1OC(C)C1=NCCN1 (stereo not drawn) please.
127.1

For human α2A‐adrenoceptor (Homo sapiens), provide % 10 μM PDBu, ERK1/2‐phosphorylation of CCC1(c2cnc[nH]2)Cc2ccccc2C1 please.
42.4

For human α2A‐adrenoceptor (Homo sapiens), provide % 10 μM PDBu, ERK1/2‐phosphorylation of CNCC(O)c1ccc(O)cc1 (stereo not drawn) [Synephrine] please.
114.5

Origin of values: paper PMC9471048
